Data origin, for the record: patent US11332443B2

Biological target: PYL2-HAB1 (Arabidopsis thaliana)
Construct: 6xHis (N); made in house; host or cells: E. coli BL21[DE3]pLysS (stated for GST-HAB1)
Assay: PP2C activity assay, PYL2-HAB1 inhibition
Format: biochemical
Details: 200 nM test compound, 100 nM HAB1 PP2C, 200 nM receptor; read-out: % Inhibition of PYR/PYL-HAB1 at 200 nM: PYL2
The label depends only on percent inhibition at 0.2 µM: Criterion met if it is at least 80%, Criterion not met if it is smaller.

Entry CCCN1C(=O)CCc2cc(NS(=O)(=O)Cc3ccc(Cl)cc3Cl)cc(F)c21 [HQ22] : is its percent inhibition at 0.2 µM no less than 80%?
Criterion met

Record CCCN1C(=O)CCc2cc(NS(=O)(=O)Cc3ccc([N+](=O)[O-])cc3)cc(F)c21 [HQ24] ; criterion: percent inhibition at 0.2 µM no lower than 80%. Met?
Criterion not met

In plain terms: is recorded percent inhibition at 0.2 µM at least 80% for CCCN1C(=O)CCc2cc(NS(=O)(=O)Cc3cccc(C(F)(F)F)c3)cc(F)c21 [HQ17] ?
Criterion met

Is the recorded value of percent inhibition at 0.2 µM equal to or greater than 80% for this compound? CCCN1C(=O)CCc2cc(NS(=O)(=O)Cc3ccccc3Br)cc(F)c21 [HQ20]
Criterion met

I'd appreciate it if you could say whether CCCN1C(=O)CCc2cc(NS(=O)(=O)Cc3ccc(C(=O)OC)cc3)cc(F)c21 [HQ14] has percent inhibition at 0.2 µM at least equal to 80%.
Criterion met

Check this compound for percent inhibition at 0.2 µM at or above 80%: CCCN1C(=O)CCc2cc(NS(=O)(=O)Cc3ccc(F)cc3Br)cc(F)c21 [HQ8]
Criterion met

Given the entry CCCN1C(=O)CCc2cc(NS(=O)(=O)Cc3cccc(F)c3)cc(F)c21 [HQ21] , answer whether its percent inhibition at 0.2 µM meets or surpasses 80%.
Criterion not met

Check this compound for percent inhibition at 0.2 µM at or above 80%: CCCN1C(=O)CCc2cc(NS(=O)(=O)Cc3cccc(F)c3F)cc(F)c21 [HQ7]
Criterion not met

----------
Target: PYL2-HAB1 (Arabidopsis thaliana, UniProt O80992)
Construct: 6xHis (N); made in house; host or cells: E. coli BL21[DE3]pLysS (stated for GST-HAB1)
Sequence (O80992 whole entry, one chain of several): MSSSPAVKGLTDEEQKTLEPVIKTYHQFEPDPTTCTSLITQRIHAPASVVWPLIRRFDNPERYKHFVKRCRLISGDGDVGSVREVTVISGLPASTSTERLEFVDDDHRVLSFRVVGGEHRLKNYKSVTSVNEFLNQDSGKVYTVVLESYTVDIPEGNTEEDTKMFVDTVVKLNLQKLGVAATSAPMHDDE
Experiment: PP2C activity assay, PYL2-HAB1 inhibition
Type: biochemical
Details: dose response in triplicate, non-linear regression
// boundary case: IC50 equal to 200 nM maps to No; strictly smaller maps to Yes

Check if IC50 falls below 200 nM for C=CCN1C(=O)CCc2cc(NS(=O)(=O)Cc3ccc(C)cc3)cc(F)c21 .
No

In plain terms, does CCN1C(=O)CC(C)c2cc(NS(=O)(=O)Cc3ccc(C#N)cc3)cc(F)c21 (centres unmarked) come in under 200 nM for IC50?
Yes

Given the entry CCCN1C(=O)CCc2cc(NS(=O)(=O)Cc3ccc(C)cc3)c(F)cc21 , would its reported IC50 be below 200 nM?
Yes

# strict comparison: is reported IC50 < 200 nM? input = CCCN1C(=O)CCc2cc(NS(=O)(=O)Cc3ccc(C)cc3)cc(F)c21
Yes

Quick check: does COCc1ccc(CS(=O)(=O)Nc2cc(F)c3c(c2)C(C)CC(=O)N3C(C)C)cc1 (centres unmarked) have IC50 under 200 nM?
Yes

----------
For each of the compounds below, state its activity at 0.2 µM.
Biological target: PYL1-HAB1 (Arabidopsis thaliana)
Construct: 6xHis (N); made in house; host or cells: E. coli BL21[DE3]pLysS (stated for GST-HAB1)
Sequence (Q8VZS8 whole entry): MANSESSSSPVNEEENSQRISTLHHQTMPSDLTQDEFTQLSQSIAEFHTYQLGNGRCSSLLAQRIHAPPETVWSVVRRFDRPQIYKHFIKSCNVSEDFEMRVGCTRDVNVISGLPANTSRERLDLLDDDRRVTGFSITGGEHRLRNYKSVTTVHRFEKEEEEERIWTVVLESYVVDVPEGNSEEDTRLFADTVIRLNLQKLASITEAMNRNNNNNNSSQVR
Sequence (Q9CAJ0 23-511 partner): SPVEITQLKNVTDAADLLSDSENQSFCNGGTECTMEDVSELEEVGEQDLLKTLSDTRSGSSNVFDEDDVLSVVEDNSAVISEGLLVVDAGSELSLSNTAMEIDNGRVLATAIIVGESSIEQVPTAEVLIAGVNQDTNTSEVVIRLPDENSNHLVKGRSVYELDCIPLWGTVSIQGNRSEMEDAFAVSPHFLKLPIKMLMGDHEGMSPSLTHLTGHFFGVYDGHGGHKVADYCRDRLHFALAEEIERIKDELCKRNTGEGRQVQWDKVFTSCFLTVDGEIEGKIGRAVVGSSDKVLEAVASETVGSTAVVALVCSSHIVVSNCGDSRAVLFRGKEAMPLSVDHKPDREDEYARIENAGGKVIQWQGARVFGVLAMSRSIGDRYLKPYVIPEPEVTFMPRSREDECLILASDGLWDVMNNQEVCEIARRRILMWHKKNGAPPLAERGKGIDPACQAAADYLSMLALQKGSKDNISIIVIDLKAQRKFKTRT
Test: PP2C activity assay, PYL1-HAB1 inhibition
Format: biochemical
Conditions: 200 nM test compound, 100 nM HAB1 PP2C, 200 nM receptor; read-out: % Inhibition of PYR/PYL-HAB1 at 200 nM: PYL1
Report only the number, with the unit % understood.

GET /values?readout=activity at 0.2 µM&item= CCCN1C(=O)CCc2cc(NS(=O)(=O)Cc3ccc(OC(F)(F)F)cc3)cc(F)c21
47.6

# get_value(readout='activity at 0.2 µM', item= CCCN1C(=O)CCc2cc(NS(=O)(=O)Cc3cccc(C(F)(F)F)c3)cc(F)c21 )
88.1

# input compound: CCCN1C(=O)CCc2cc(NS(=O)(=O)Cc3ccc(F)cc3Cl)cc(F)c21 ; wanted: its activity at 0.2 µM
88.2

----------
Target: PYR1-HAB1 (Arabidopsis thaliana)
Construct: 6xHis (N); made in house; host or cells: E. coli BL21[DE3]pLysS (stated for GST-HAB1)
Test: PP2C activity assay, PYR1-HAB1 inhibition
Format: biochemical
Conditions: 200 nM test compound, 100 nM HAB1 PP2C, 200 nM receptor; read-out: % Inhibition of PYR/PYL-HAB1 at 200 nM: PYR1
Text: The protein HAB1, a type 2 protein phosphatase (PP2C), is inhibited by PYR/PYL proteins in dependence of abscisic acid or other agonists. […] Since inhibition of PP2C correlates to inhibition of seed-germination and increase in plant water-use efficiency, it serves as a powerful tool to quantify biological potential of a chemical acting as an analogue of abscisic acid. […]
Would you mind telling me the reported activity at 0.2 µM of each entry?
Write the answer as a number in %, unit excluded.

Need activity at 0.2 µM, item CCCN1C(=O)CCc2cc(NS(=O)(=O)Cc3ccccc3F)cc(F)c21
65.7

Any idea what activity at 0.2 µM was measured for CCCN1C(=O)CCc2cc(NS(=O)(=O)Cc3ccc(C(=O)OC)cc3)cc(F)c21 ?
62.6

Given the compound CCCN1C(=O)CCc2cc(NS(=O)(=O)Cc3ccccc3Br)cc(F)c21 , what is its reported activity at 0.2 µM?
97.4

Give its activity at 0.2 µM value. Item: CCCN1C(=O)CCc2cc(NS(=O)(=O)Cc3ccc([N+](=O)[O-])cc3)cc(F)c21
69

Dear colleague, I am looking for the recorded activity at 0.2 µM of the following compound: CCCN1C(=O)CCc2cc(NS(=O)(=O)Cc3cccc(C(F)(F)F)c3)cc(F)c21
104

Query: activity at 0.2 µM; subject: CCCN1C(=O)CCc2cc(NS(=O)(=O)Cc3ccc(C(F)(F)F)cc3)cc(F)c21
52

Consider the compound CCCN1C(=O)CCc2cc(NS(=O)(=O)Cc3ccc(C)cc3)ccc21 and give its measured activity at 0.2 µM.
22

Find the recorded activity at 0.2 µM belonging to CCCN1C(=O)CCc2cc(NS(=O)(=O)Cc3cc(F)ccc3F)cc(F)c21 and report it.
57.9

What value of measured activity at 0.2 µM is listed for CCCN1C(=O)CCc2cc(NS(=O)(=O)Cc3ccccc3C#N)cc(F)c21 ?
106

Entry CCCN1C(=O)CCc2cc(NS(=O)(=O)Cc3ccc(Cl)cc3)cc(F)c21 has what activity at 0.2 µM?
35

For the compound shown here, CCCN1C(=O)CCc2cc(NS(=O)(=O)Cc3cccc(F)c3F)cc(F)c21 , give the reported activity at 0.2 µM.
53.9

Could you tell me which activity at 0.2 µM is on file for CCCN1C(=O)CCc2cc(NS(=O)(=O)Cc3ccc(C)cc3)cc(F)c21 ?
14.7

# input compound: CCCN1C(=O)CCc2cc(NS(=O)(=O)Cc3ccc(F)cc3F)cc(F)c21 ; wanted: its activity at 0.2 µM
61.5

----------
Target: PYR1-HAB1 (Arabidopsis thaliana, UniProt O49686)
Construct: 6xHis (N); made in house; host or cells: E. coli BL21[DE3]pLysS (stated for GST-HAB1)
Sequence (O49686 whole entry): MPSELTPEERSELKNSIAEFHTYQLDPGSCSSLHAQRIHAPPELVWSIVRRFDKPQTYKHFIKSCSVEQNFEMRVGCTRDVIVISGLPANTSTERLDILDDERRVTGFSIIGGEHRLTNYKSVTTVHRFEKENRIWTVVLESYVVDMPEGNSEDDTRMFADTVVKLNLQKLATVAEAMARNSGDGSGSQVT
Sequence (Q9CAJ0 23-511 partner): as the sequence (Q9CAJ0 23-511 partner) above
Experiment: PP2C activity assay, PYR1-HAB1 inhibition
Assay type: biochemical
Settings: dose response in triplicate, non-linear regression
Kindly state IC50 for each of the entries shown.
Could you give me the number in nM? Just the number is fine.

Consider the molecule CCN1C(=O)CC(C)c2cc(NS(=O)(=O)Cc3ccc(C#N)cc3F)cc(F)c21 (stereo not drawn) [HQ42] and give its measured IC50.
589

# get_value(readout='IC50', item= CCCN1C(=O)CCc2cc(NS(=O)(=O)Cc3ccc(C)cc3)cc(F)c21 [HQ1] )
37.5

What measured IC50 goes with CCN1C(=O)CC(C)c2cc(NS(=O)(=O)Cc3ccc(Cl)s3)cc(F)c21 (stereo not drawn) [HQ57] ?
953

Can you share its IC50? I mean this molecule: CCN1C(=O)CC(C)c2cc(NS(=O)(=O)Cc3ccc(C)cn3)cc(F)c21 (stereo not drawn) [HQ53]
153

# IC50 lookup, item C=CCN1C(=O)CC(C)c2cc(NS(=O)(=O)Cc3ccc(COC)cc3)cc(F)c21 (stereo not drawn) [HQ36]
126

Name the recorded IC50 for CCCN1C(=O)CCc2cc(NS(=O)(=O)Cc3ccc(C)cc3)cc(C#N)c21 [HQ41] .
967

# lookup: IC50 of C=CCN1C(=O)CCc2cc(NS(=O)(=O)Cc3ccc(C)cc3)cc(F)c21 [HQ28]
62.3

// lookup IC50 for C=CCN1C(=O)CC(C)c2cc(NS(=O)(=O)Cc3ccc(CC)cc3)cc(F)c21 (stereo not drawn) [HQ33]
204

Quick one: IC50 for CCCN1C(=O)CCc2c1ccc(NS(=O)(=O)Cc1ccc(C)cc1)c2F [HQ46] ?
694

What IC50 value was documented for this molecule, CCc1ccc(CS(=O)(=O)Nc2cc(F)c3c(c2)C(C)CC(=O)N3CC)cc1 (stereo not drawn) [HQ35] ?
37

Would you mind telling me what IC50 value was observed for Cc1ccc(CS(=O)(=O)Nc2cc(F)c3c(c2)C(C)CC(=O)N3C(C)C)cc1 (stereo not drawn) [HQ32] ?
408

Entry CCCN1C(=O)CCc2cc(NS(=O)(=O)Cc3ccc(C)cc3)cc(Br)c21 [HQ40] has what IC50?
165

Need IC50 of CCCN1C(=O)CCc2cc(NS(=O)(=O)Cc3ccc(Cl)cc3)cc(F)c21 [HQ18] , thanks.
63.3

What does the data say about its IC50? Entry: CCCN1C(=O)CCc2cc(NS(=O)(=O)Cc3ccc(C)cc3)c(F)cc21 [HQ47]
172

Would you mind telling me what IC50 value was observed for CCN1C(=O)CC(C)c2cc(NS(=O)(=O)Cc3ccc(COC)cc3)cc(F)c21 (stereo not drawn) [HQ38] ?
103

// IC50 lookup, key: Cc1ccc(CS(=O)(=O)Nc2cc(F)c3c(c2)C(C)CC(=O)N3C2CC2)cc1 (stereo not drawn) [HQ39]
1260
